System: U2OS
Method: Incucyte cell viability with U2OS; also: unitless GR value; below 1 slowed growth and below 0 cell loss
Assay type: toxicity, cell-based
Condition details: human, 6 h, 10 µM, compound concentration 10 uM, replicate number 2
I'd appreciate it if you could supply Growth Rate values for the items below.
Just the number, please.

Lookup: Give the measured Growth Rate for "CN(C)[C@H]1CC[C@H](Nc2ncc3ncnc(Nc4ccc(F)c(Cl)c4)c3n2)CC1"
Found: 0.45

Lookup: Consider the molecule "CC[C@H](Nc1ncnc2[nH]cnc12)c1nc2cccc(F)c2c(=O)n1-c1ccccc1" and give its recorded Growth Rate.
Found: 0.92

Lookup: Consider the molecule "CC(C)(O)CNC(=O)N1C(=O)N(c2cccc(C(F)(F)F)c2)C2=C(C(=O)CC2)[C@@H]1c1ccc(C#N)cc1" and give its recorded Growth Rate.
Found: 0.9

Lookup: Answer with reported Growth Rate of "CCO[C@@H](Cc1ccc(OCCc2ccc(OS(C)(=O)=O)cc2)cc1)C(=O)O"
Found: 0.99

---

System: U2OS
Method: Incucyte cell viability with U2OS; also: unitless GR value; below 1 slowed growth and below 0 cell loss
Format: toxicity, cell-based
Condition details: human, 24 h, 10 µM, compound concentration 10 uM, replicate number 2
Readout type: Growth Rate
Keep it simple and answer with nothing but the number.

Lookup: With U2OS as the test system, provide measured Growth Rate for this compound: "CN1CCN(c2nc(N)c3ccccc3n2)CC1"
Found: 0.83

Lookup: Enter measured Growth Rate, system U2OS, for the compound shown: "CN1C(=O)c2ccccc2N(C)c2nc(Nc3cnn(C4CCNCC4)c3)ncc21"
Found: 0.24

Lookup: State Growth Rate on U2OS. Entry: "CCCCC[C@H](O)/C=C/[C@H]1[C@H](O)CC(=O)[C@@H]1CCCCCCC(=O)O"
Found: 0.92

Lookup: Identify measured Growth Rate obtained with U2OS for NC(=O)C1CCCc2c1[nH]c1ccc(Cl)cc21 (centres undefined) .
Found: 0.96

Lookup: State the measured Growth Rate (U2OS) of "COc1cc(/C=C(\C#N)C(=O)Nc2nnc(C(F)(F)F)s2)ccc1OCc1ccc(C(F)(F)F)cc1C(F)(F)F"
Found: 0.87

Lookup: Fill: Growth Rate (U2OS) for this compound "CC(C)c1cnc(NC(=O)Cc2ccccc2)s1"
Found: 0.77

Lookup: Write down measured Growth Rate (U2OS) for this compound. "CCn1cnc2c(-c3ccc(F)c(-c4ccc(S(=O)(=O)CC)cc4OC)c3)cnnc21"
Found: -0.05

Lookup: Give the observed Growth Rate of "O=C(NS(=O)(=O)N1CCC1)c1cc(C2CC2)c(OCC23CC4CC(CC(C4)C2)C3)cc1F" for U2OS.
Found: 0.87

Lookup: # assay system U2OS: give Growth Rate of "CNC(=O)COc1cc2cc(Nc3nc(N4CCC(C(=O)N(C)C)CC4)ncc3Cl)cc(OC)c2n(C)c1=O"
Found: 0.91

---

Tested on: HEK-293T
Method: Incucyte cell viability with HEK293T; also: unitless GR value; below 1 slowed growth and below 0 cell loss
Type: toxicity, cell-based
Condition details: human, 18 h, 10 µM, compound concentration 10 uM, replicate number 2
We label by threshold. Values of Growth Rate strictly beneath 0.6 are class 1. Values of 0.6 and up are class 0.

Lookup: Regarding COc1c(OCCCN2CCOCC2)ccc2c1N=C(NC(=O)c1cnc(N)nc1)N1CCN=C21 [COPANLISIB] , kindly confirm whether its Growth Rate is beneath 0.6.
Found: class 1

Lookup: Does CCC(=N\O)/C(C)=C/c1ccc(F)cc1 [A-079] have Growth Rate strictly under 0.6?
Found: class 1

Lookup: Is it true that Growth Rate reported for "O=C(Nc1ccc(C(O)(C(F)(F)F)C(F)(F)F)cc1)c1ccc(C(F)(F)F)cc1" is less than 0.6?
Found: class 1

Lookup: Confirm or reject: Growth Rate of "O=C1CCCc2[nH]c(-c3ccnc(NCC4CC4)c3)c(Nc3ccccc3)c21" lies strictly below 0.6
Found: class 0

Lookup: Given NC(=O)C1CCCc2c1[nH]c1ccc(Cl)cc21 (stereo not given) , is recorded Growth Rate strictly lower than 0.6?
Found: class 0
